- Tested on: HARA
- TEST DETAILS: relative viability (nuclei count vs DMSO), 5 days (fraction); higher = more cells survive
- DETAILS: first compound 5 µM
Please respond with fulfilled when measured relative viability is strictly beneath 0.5, and with not fulfilled in all other cases.

Would you please look over these solved cases?
INSERT INTO measurements (molecule, class_assignment) VALUES
  ('O=C(O)CCCCC(CCSCc1ccccc1)SCc1ccccc1 (stereo unspecified) [CPI-613] + CC(C)C[C@H](NC(=O)[C@H](Cc1ccccc1)NC(=O)c1cnccn1)B(O)O [Bortezomib] (partner 0.002 µM)', 'not fulfilled'),
  ('O=C(O)CCCCC(CCSCc1ccccc1)SCc1ccccc1 (stereo unspecified) [CPI-613] + CC(=O)Nc1cccc(-n2c(=O)n(C3CC3)c(=O)c3c(Nc4ccc(I)cc4F)n(C)c(=O)c(C)c32)c1 [Trametinib] (partner 0.02 µM)', 'not fulfilled'),
  ('O=C(O)CCCCC(CCSCc1ccccc1)SCc1ccccc1 (stereo unspecified) [CPI-613] + O=C(CCCCCCC(=O)Nc1ccccc1)NO [Vorinostat] (partner 1 µM)', 'fulfilled'),
  ('O=C(O)CCCCC(CCSCc1ccccc1)SCc1ccccc1 (stereo unspecified) [CPI-613] + CC(=O)c1c(C)c2cnc(Nc3ccc(N4CCNCC4)cn3)nc2n(C2CCCC2)c1=O [Palbociclib] (partner 0.5 µM)', 'fulfilled');

Now let's try a different one.
Find out if reported relative viability for O=C(O)CCCCC(CCSCc1ccccc1)SCc1ccccc1 (stereo unspecified) [CPI-613] + CS(=O)(=O)N1CCN(Cc2cc3nc(-c4cccc5[nH]ncc45)nc(N4CCOCC4)c3s2)CC1 [Pictilisib] (partner 1 µM) is less than 0.5
fulfilled

----------
relative viability values by entry
- Test system: NCI-H1355
- TEST DETAILS: relative viability (nuclei count vs DMSO), 5 days (fraction); higher = more cells survive
- DETAILS: first compound 0.4 µM
Please reply with the number alone, leaving off any unit.

For orientation, consider the following solved cases.
INSERT INTO assay_data (compound, observed) VALUES
  ('Cc1sc2c(c1C)C(c1ccc(Cl)cc1)=N[C@@H](CC(=O)OC(C)(C)C)c1nnc(C)n1-2 [JQ1] + C[C@]1(O)C[C@@H](c2nc(-c3ccc4ccc(-c5ccccc5)nc4c3)c3c(N)nccn32)C1 [Linsitinib] (partner 1 µM)', 0.814),
  ('Cc1sc2c(c1C)C(c1ccc(Cl)cc1)=N[C@@H](CC(=O)OC(C)(C)C)c1nnc(C)n1-2 [JQ1] + CC(=O)c1c(C)c2cnc(Nc3ccc(N4CCNCC4)cn3)nc2n(C2CCCC2)c1=O [Palbociclib] (partner 0.5 µM)', 0.323);

Lab book: relative viability of Cc1sc2c(c1C)C(c1ccc(Cl)cc1)=N[C@@H](CC(=O)OC(C)(C)C)c1nnc(C)n1-2 [JQ1] + N=C(N)NC(=N)NCCc1ccccc1 [Phenformin] (partner 250 µM) noted as 0.433

Lab book: relative viability of Cc1sc2c(c1C)C(c1ccc(Cl)cc1)=N[C@@H](CC(=O)OC(C)(C)C)c1nnc(C)n1-2 [JQ1] + COc1cc2c(Oc3ccc(NC(=O)C4(C(=O)Nc5ccc(F)cc5)CC4)cc3F)ccnc2cc1OCCCN1CCOCC1 [Foretinib] (partner 0.25 µM) noted as 0.735

Lab book: relative viability of Cc1sc2c(c1C)C(c1ccc(Cl)cc1)=N[C@@H](CC(=O)OC(C)(C)C)c1nnc(C)n1-2 [JQ1] + O=C(c1cc(Cc2n[nH]c(=O)c3ccccc23)ccc1F)N1CCN(C(=O)C2CC2)CC1 [Olaparib] (partner 8 µM) noted as 0.643

Lab book: relative viability of Cc1sc2c(c1C)C(c1ccc(Cl)cc1)=N[C@@H](CC(=O)OC(C)(C)C)c1nnc(C)n1-2 [JQ1] + Cc1nc(NC(=O)N2CCC[C@H]2C(N)=O)sc1-c1ccnc(C(C)(C)C(F)(F)F)c1 [Alpelisib] (partner 2 µM) noted as 0.71

Lab book: relative viability of Cc1sc2c(c1C)C(c1ccc(Cl)cc1)=N[C@@H](CC(=O)OC(C)(C)C)c1nnc(C)n1-2 [JQ1] + COc1cccc2cc(-c3nc([C@H]4CC[C@H](C(=O)O)CC4)n4ncnc(N)c34)[nH]c12 [OSI-027] (partner 0.5 µM) noted as 0.42

Lab book: relative viability of Cc1sc2c(c1C)C(c1ccc(Cl)cc1)=N[C@@H](CC(=O)OC(C)(C)C)c1nnc(C)n1-2 [JQ1] + CC(=O)Nc1cccc(-n2c(=O)n(C3CC3)c(=O)c3c(Nc4ccc(I)cc4F)n(C)c(=O)c(C)c32)c1 [Trametinib] (partner 0.02 µM) noted as 0.34

----------
relative viability values by entry
- Test system: NCI-H2009
- TEST DETAILS: relative viability (nuclei count vs DMSO), 5 days (fraction); higher = more cells survive
- DETAILS: first compound 0.02 µM
Please reply with the number alone, leaving off any unit.

INSERT INTO results (molecule, observed) VALUES
  ('CC(=O)O[C@@]12CO[C@@H]1C[C@H](O)[C@@]1(C)C(=O)[C@H](O)C3=C(C)[C@@H](OC(=O)[C@H](O)[C@@H](NC(=O)OC(C)(C)C)c4ccccc4)C[C@@](O)([C@@H](OC(=O)c4ccccc4)[C@H]21)C3(C)C [Docetaxel] + CCNC(=O)c1noc(-c2cc(C(C)C)c(O)cc2O)c1-c1ccc(CN2CCOCC2)cc1 [Luminespib] (partner 0.01 µM)', 0.261),
  ('CC(=O)O[C@@]12CO[C@@H]1C[C@H](O)[C@@]1(C)C(=O)[C@H](O)C3=C(C)[C@@H](OC(=O)[C@H](O)[C@@H](NC(=O)OC(C)(C)C)c4ccccc4)C[C@@](O)([C@@H](OC(=O)c4ccccc4)[C@H]21)C3(C)C [Docetaxel] + CC(=O)Nc1cccc(-n2c(=O)n(C3CC3)c(=O)c3c(Nc4ccc(I)cc4F)n(C)c(=O)c(C)c32)c1 [Trametinib] (partner 0.02 µM)', 0.175);

Attention now shifts to the item below.
Lab book: relative viability of CC(=O)O[C@@]12CO[C@@H]1C[C@H](O)[C@@]1(C)C(=O)[C@H](O)C3=C(C)[C@@H](OC(=O)[C@H](O)[C@@H](NC(=O)OC(C)(C)C)c4ccccc4)C[C@@](O)([C@@H](OC(=O)c4ccccc4)[C@H]21)C3(C)C [Docetaxel] + COc1cccc2cc(-c3nc([C@H]4CC[C@H](C(=O)O)CC4)n4ncnc(N)c34)[nH]c12 [OSI-027] (partner 0.5 µM) noted as 0.134

----------
- System: UMC-11
- TEST DETAILS: relative viability (nuclei count vs DMSO), 5 days (fraction); higher = more cells survive
- DETAILS: first compound 15.81 µM
MEASURED ENDPOINT: relative viability
Please reply with the number alone, leaving off any unit.

For orientation, consider the following solved cases.
INSERT INTO results (compound, observed) VALUES
  ('O=C(O)CCCCC(CCSCc1ccccc1)SCc1ccccc1 (stereo not given) [CPI-613] + CS(=O)(=O)CCNCc1ccc(-c2ccc3ncnc(Nc4ccc(OCc5cccc(F)c5)c(Cl)c4)c3c2)o1 [Lapatinib] (partner 2 µM)', 1.11),
  ('O=C(O)CCCCC(CCSCc1ccccc1)SCc1ccccc1 (stereo not given) [CPI-613] + Nc1nc2[nH]cc(CCc3ccc(C(=O)N[C@@H](CCC(=O)O)C(=O)O)cc3)c2c(=O)[nH]1 [Pemetrexed] (partner 0.2 µM)', 0.8),
  ('O=C(O)CCCCC(CCSCc1ccccc1)SCc1ccccc1 (stereo not given) [CPI-613] + CC(=O)Nc1cccc(-n2c(=O)n(C3CC3)c(=O)c3c(Nc4ccc(I)cc4F)n(C)c(=O)c(C)c32)c1 [Trametinib] (partner 0.02 µM)', 0.703),
  ('O=C(O)CCCCC(CCSCc1ccccc1)SCc1ccccc1 (stereo not given) [CPI-613] + CC1(C)CCC(c2ccc(Cl)cc2)=C(CN2CCN(c3ccc(C(=O)NS(=O)(=O)c4ccc(N[C@H](CCN5CCOCC5)CSc5ccccc5)c(S(=O)(=O)C(F)(F)F)c4)cc3)CC2)C1 [Navitoclax] (partner 0.5 µM)', 0.324);

Attention now shifts to the item below.
Lab book: relative viability of O=C(O)CCCCC(CCSCc1ccccc1)SCc1ccccc1 (stereo not given) [CPI-613] + COc1cc2c(Oc3ccc(NC(=O)C4(C(=O)Nc5ccc(F)cc5)CC4)cc3F)ccnc2cc1OCCCN1CCOCC1 [Foretinib] (partner 0.25 µM) noted as 1.04

----------
- Tested on: NCI-H2342
- TEST DETAILS: relative viability (nuclei count vs DMSO), 5 days (fraction); higher = more cells survive
- DETAILS: first compound 4 µM
Please respond with Y when measured relative viability is strictly beneath 0.7, and with N in all other cases.

Find out if reported relative viability for Cc1sc2c(c1C)C(c1ccc(Cl)cc1)=N[C@@H](CC(=O)OC(C)(C)C)c1nnc(C)n1-2 [JQ1] + Cc1nc(Nc2ncc(C(=O)Nc3c(C)cccc3Cl)s2)cc(N2CCN(CCO)CC2)n1 [Dasatinib] (partner 0.075 µM) is less than 0.7
Y

Find out if reported relative viability for Cc1sc2c(c1C)C(c1ccc(Cl)cc1)=N[C@@H](CC(=O)OC(C)(C)C)c1nnc(C)n1-2 [JQ1] + Nc1nc2[nH]cc(CCc3ccc(C(=O)N[C@@H](CCC(=O)O)C(=O)O)cc3)c2c(=O)[nH]1 [Pemetrexed] (partner 0.2 µM) is less than 0.7
Y

Find out if reported relative viability for Cc1sc2c(c1C)C(c1ccc(Cl)cc1)=N[C@@H](CC(=O)OC(C)(C)C)c1nnc(C)n1-2 [JQ1] + N=C(N)NC(=N)NCCc1ccccc1 [Phenformin] (partner 250 µM) is less than 0.7
Y

Find out if reported relative viability for Cc1sc2c(c1C)C(c1ccc(Cl)cc1)=N[C@@H](CC(=O)OC(C)(C)C)c1nnc(C)n1-2 [JQ1] + COc1cc2c(Oc3ccc(NC(=O)C4(C(=O)Nc5ccc(F)cc5)CC4)cc3F)ccnc2cc1OCCCN1CCOCC1 [Foretinib] (partner 0.25 µM) is less than 0.7
N

Find out if reported relative viability for Cc1sc2c(c1C)C(c1ccc(Cl)cc1)=N[C@@H](CC(=O)OC(C)(C)C)c1nnc(C)n1-2 [JQ1] + Nc1ncn([C@H]2C[C@H](O)[C@@H](CO)O2)c(=O)n1 [Decitabine] (partner 2 µM) is less than 0.7
Y

Find out if reported relative viability for Cc1sc2c(c1C)C(c1ccc(Cl)cc1)=N[C@@H](CC(=O)OC(C)(C)C)c1nnc(C)n1-2 [JQ1] + CC(=O)Nc1cccc(-n2c(=O)n(C3CC3)c(=O)c3c(Nc4ccc(I)cc4F)n(C)c(=O)c(C)c32)c1 [Trametinib] (partner 0.02 µM) is less than 0.7
Y
